These data points were gathered from the supplement of paper PMC10307832.

- Tested on: NCI-H1793
- PROTOCOL DESCRIPTION: relative viability (nuclei count vs DMSO), 5 days (fraction); higher = more cells survive
- SETUP CONDITIONS: first compound 0.8 µM
EXPERIMENTAL ENDPOINT: relative viability

Return reported relative viability; argument: CCCCCCCCCCCC1=C(O)C(=O)C=C(O)C1=O [Embelin] + Cc1nc(NC(=O)N2CCC[C@H]2C(N)=O)sc1-c1ccnc(C(C)(C)C(F)(F)F)c1 [Alpelisib] (partner 2 µM)
0.972

Return reported relative viability; argument: CCCCCCCCCCCC1=C(O)C(=O)C=C(O)C1=O [Embelin] + NC(=O)Nc1cc(-c2cccc(F)c2)sc1C(=O)N[C@H]1CCCNC1 [AZD7762] (partner 0.2 µM)
0.927

Return reported relative viability; argument: CCCCCCCCCCCC1=C(O)C(=O)C=C(O)C1=O [Embelin] + CS(=O)(=O)CCNCc1ccc(-c2ccc3ncnc(Nc4ccc(OCc5cccc(F)c5)c(Cl)c4)c3c2)o1 [Lapatinib] (partner 2 µM)
0.833

###

- Tested on: NCI-H2023
- PROTOCOL DESCRIPTION: relative viability (nuclei count vs DMSO), 5 days (fraction); higher = more cells survive
- SETUP CONDITIONS: first compound 0.3162 µM
EXPERIMENTAL ENDPOINT: relative viability
Note: the reply should be a number with no unit written.

Return reported relative viability; argument: CC(C)Oc1cc(Nc2nc(N[C@@H](C)c3ccc(F)cn3)ncc2Cl)n[nH]1 [AZ23] + Cc1cc(Nc2cc(N3CCN(C)CC3)nc(Sc3ccc(NC(=O)C4CC4)cc3)n2)n[nH]1 [Tozasertib] (partner 0.1 µM)
0.46

###

Recorded relative viability for the following compounds
- System: HCC-44
- PROTOCOL DESCRIPTION: relative viability (nuclei count vs DMSO), 5 days (fraction); higher = more cells survive
- SETUP CONDITIONS: first compound 4 µM
Note: the reply should be a number with no unit written.

The following compounds have reported results that may help.
>  <COMPOUND>
COc1cc(N2CCC(C(N)=O)CC2)ccc1Nc1nc(N)c(Cl)c(Nc2ccccc2S(=O)(=O)C(C)C)n1 [HG-5-88-01] + O=C(c1cc(Cc2n[nH]c(=O)c3ccccc23)ccc1F)N1CCN(C(=O)C2CC2)CC1 [Olaparib] (partner 8 µM)

>  <relative viability>
0.919

$$$$
>  <COMPOUND>
Clc1ccc(Nc2nnc(Cc3ccncc3)c3ccccc23)cc1 [Vatalanib] + O=C(c1cc(Cc2n[nH]c(=O)c3ccccc23)ccc1F)N1CCN(C(=O)C2CC2)CC1 [Olaparib] (partner 8 µM)

>  <relative viability>
0.996

$$$$
>  <COMPOUND>
COc1cc(N2CCC(C(N)=O)CC2)ccc1Nc1nc(N)c(Cl)c(Nc2ccccc2S(=O)(=O)C(C)C)n1 [HG-5-88-01] + Cc1nc(NC(=O)N2CCC[C@H]2C(N)=O)sc1-c1ccnc(C(C)(C)C(F)(F)F)c1 [Alpelisib] (partner 2 µM)

>  <relative viability>
0.471

$$$$

Please provide the recorded relative viability for C[C@@H]1CN(CC(=O)Nc2ccc3c(c2)Cc2cccc(-c4cc(=O)cc(N5CCOCC5)o4)c2S3)C[C@H](C)O1 + COc1cccc2cc(-c3nc([C@H]4CC[C@H](C(=O)O)CC4)n4ncnc(N)c34)[nH]c12 [OSI-027] (partner 0.5 µM) , tested on HCC-44.
0.305

###

- Test system: HCC-827
- PROTOCOL DESCRIPTION: relative viability (nuclei count vs DMSO), 5 days (fraction); higher = more cells survive
- SETUP CONDITIONS: first compound 1.265 µM
Recorded relative viability for the following molecules
Note: the reply should be a number with no unit written.

The following molecules have reported results that may help.
>  <MOLECULE>
Clc1ccc(Nc2nnc(Cc3ccncc3)c3ccccc23)cc1 [Vatalanib] + O=C(c1cc(Cc2n[nH]c(=O)c3ccccc23)ccc1F)N1CCN(C(=O)C2CC2)CC1 [Olaparib] (partner 8 µM)

>  <relative viability>
0.534

$$$$
>  <MOLECULE>
COc1cc(N2CCC(C(N)=O)CC2)ccc1Nc1nc(N)c(Cl)c(Nc2ccccc2S(=O)(=O)C(C)C)n1 [HG-5-88-01] + CS(=O)(=O)CCNCc1ccc(-c2ccc3ncnc(Nc4ccc(OCc5cccc(F)c5)c(Cl)c4)c3c2)o1 [Lapatinib] (partner 2 µM)

>  <relative viability>
0.197

$$$$

Shifting focus to the molecule that follows.
Return reported relative viability; argument: COc1cc(N2CCC(C(N)=O)CC2)ccc1Nc1nc(N)c(Cl)c(Nc2ccccc2S(=O)(=O)C(C)C)n1 [HG-5-88-01] + Cc1nc(NC(=O)N2CCC[C@H]2C(N)=O)sc1-c1ccnc(C(C)(C)C(F)(F)F)c1 [Alpelisib] (partner 2 µM)
0.849

###

- Test system: NCI-H1355
- PROTOCOL DESCRIPTION: relative viability (nuclei count vs DMSO), 5 days (fraction); higher = more cells survive
- SETUP CONDITIONS: first compound 8 µM
Response field label takes satisfied when relative viability is strictly below 0.4 and not satisfied in all other cases.

Here are 4 compounds together with their reported answers.
>  <COMPOUND>
CCCCCCCCCCCC1=C(O)C(=O)C=C(O)C1=O [Embelin] + CC(=O)Nc1cccc(-n2c(=O)n(C3CC3)c(=O)c3c(Nc4ccc(I)cc4F)n(C)c(=O)c(C)c32)c1 [Trametinib] (partner 0.02 µM)

>  <QUALITATIVE LABEL>
not satisfied

$$$$
>  <COMPOUND>
CCCCCCCCCCCC1=C(O)C(=O)C=C(O)C1=O [Embelin] + Nc1nc2[nH]cc(CCc3ccc(C(=O)N[C@@H](CCC(=O)O)C(=O)O)cc3)c2c(=O)[nH]1 [Pemetrexed] (partner 0.2 µM)

>  <QUALITATIVE LABEL>
not satisfied

$$$$
>  <COMPOUND>
CCCCCCCCCCCC1=C(O)C(=O)C=C(O)C1=O [Embelin] + CS(=O)(=O)N1CCN(Cc2cc3nc(-c4cccc5[nH]ncc45)nc(N4CCOCC4)c3s2)CC1 [Pictilisib] (partner 1 µM)

>  <QUALITATIVE LABEL>
satisfied

$$$$
>  <COMPOUND>
CCCCCCCCCCCC1=C(O)C(=O)C=C(O)C1=O [Embelin] + Nc1ncn([C@H]2C[C@H](O)[C@@H](CO)O2)c(=O)n1 [Decitabine] (partner 2 µM)

>  <QUALITATIVE LABEL>
satisfied

$$$$

# input for lookup
Hi there! Is relative viability for CCCCCCCCCCCC1=C(O)C(=O)C=C(O)C1=O [Embelin] + CC(=O)c1c(C)c2cnc(Nc3ccc(N4CCNCC4)cn3)nc2n(C2CCCC2)c1=O [Palbociclib] (partner 0.5 µM) below 0.4, do you know?
satisfied

###

- Tested on: LU99A
- PROTOCOL DESCRIPTION: relative viability (nuclei count vs DMSO), 5 days (fraction); higher = more cells survive
- SETUP CONDITIONS: first compound 4 µM
Recorded relative viability for the following molecules
Note: the reply should be a number with no unit written.

The following molecules have reported results that may help.
>  <MOLECULE>
COc1cc(N2CCC(C(N)=O)CC2)ccc1Nc1nc(N)c(Cl)c(Nc2ccccc2S(=O)(=O)C(C)C)n1 [HG-5-88-01] + O=C(CCCCCCC(=O)Nc1ccccc1)NO [Vorinostat] (partner 1 µM)

>  <MEASUREMENT TARGET>
LU99A

>  <relative viability>
0.436

$$$$
>  <MOLECULE>
Clc1ccc(Nc2nnc(Cc3ccncc3)c3ccccc23)cc1 [Vatalanib] + CS(=O)(=O)CCNCc1ccc(-c2ccc3ncnc(Nc4ccc(OCc5cccc(F)c5)c(Cl)c4)c3c2)o1 [Lapatinib] (partner 2 µM)

>  <MEASUREMENT TARGET>
LU99A

>  <relative viability>
0.92

$$$$
>  <MOLECULE>
C[C@@H]1CN(CC(=O)Nc2ccc3c(c2)Cc2cccc(-c4cc(=O)cc(N5CCOCC5)o4)c2S3)C[C@H](C)O1 + CS(=O)(=O)CCNCc1ccc(-c2ccc3ncnc(Nc4ccc(OCc5cccc(F)c5)c(Cl)c4)c3c2)o1 [Lapatinib] (partner 2 µM)

>  <MEASUREMENT TARGET>
LU99A

>  <relative viability>
1.04

$$$$

Return reported relative viability; argument: COc1cc(N2CCC(C(N)=O)CC2)ccc1Nc1nc(N)c(Cl)c(Nc2ccccc2S(=O)(=O)C(C)C)n1 [HG-5-88-01] + C[C@@H](Oc1cc(-c2cnn(C3CCNCC3)c2)cnc1N)c1c(Cl)ccc(F)c1Cl [Crizotinib] (partner 1 µM)
0.423

###

- Tested on: HOP-62
- PROTOCOL DESCRIPTION: relative viability (nuclei count vs DMSO), 5 days (fraction); higher = more cells survive
- SETUP CONDITIONS: first compound 1.265 µM
Recorded relative viability for the following compounds
Note: the reply should be a number with no unit written.

The following compounds have reported results that may help.
>  <COMPOUND>
COc1cc(N2CCC(C(N)=O)CC2)ccc1Nc1nc(N)c(Cl)c(Nc2ccccc2S(=O)(=O)C(C)C)n1 [HG-5-88-01] + CS(=O)(=O)N1CCN(Cc2cc3nc(-c4cccc5[nH]ncc45)nc(N4CCOCC4)c3s2)CC1 [Pictilisib] (partner 1 µM)

>  <MEASUREMENT TARGET>
HOP-62

>  <relative viability>
0.892

$$$$
>  <COMPOUND>
Clc1ccc(Nc2nnc(Cc3ccncc3)c3ccccc23)cc1 [Vatalanib] + COc1cccc2cc(-c3nc([C@H]4CC[C@H](C(=O)O)CC4)n4ncnc(N)c34)[nH]c12 [OSI-027] (partner 0.5 µM)

>  <MEASUREMENT TARGET>
HOP-62

>  <relative viability>
0.741

$$$$
>  <COMPOUND>
Clc1ccc(Nc2nnc(Cc3ccncc3)c3ccccc23)cc1 [Vatalanib] + NC(=O)Nc1cc(-c2cccc(F)c2)sc1C(=O)N[C@H]1CCCNC1 [AZD7762] (partner 0.2 µM)

>  <MEASUREMENT TARGET>
HOP-62

>  <relative viability>
0.695

$$$$

Return reported relative viability; argument: Clc1ccc(Nc2nnc(Cc3ccncc3)c3ccccc23)cc1 [Vatalanib] + CS(=O)(=O)CCNCc1ccc(-c2ccc3ncnc(Nc4ccc(OCc5cccc(F)c5)c(Cl)c4)c3c2)o1 [Lapatinib] (partner 2 µM)
0.827
